Biological target: UniProt:O75116
Sequence (O75116 whole entry, species assumed): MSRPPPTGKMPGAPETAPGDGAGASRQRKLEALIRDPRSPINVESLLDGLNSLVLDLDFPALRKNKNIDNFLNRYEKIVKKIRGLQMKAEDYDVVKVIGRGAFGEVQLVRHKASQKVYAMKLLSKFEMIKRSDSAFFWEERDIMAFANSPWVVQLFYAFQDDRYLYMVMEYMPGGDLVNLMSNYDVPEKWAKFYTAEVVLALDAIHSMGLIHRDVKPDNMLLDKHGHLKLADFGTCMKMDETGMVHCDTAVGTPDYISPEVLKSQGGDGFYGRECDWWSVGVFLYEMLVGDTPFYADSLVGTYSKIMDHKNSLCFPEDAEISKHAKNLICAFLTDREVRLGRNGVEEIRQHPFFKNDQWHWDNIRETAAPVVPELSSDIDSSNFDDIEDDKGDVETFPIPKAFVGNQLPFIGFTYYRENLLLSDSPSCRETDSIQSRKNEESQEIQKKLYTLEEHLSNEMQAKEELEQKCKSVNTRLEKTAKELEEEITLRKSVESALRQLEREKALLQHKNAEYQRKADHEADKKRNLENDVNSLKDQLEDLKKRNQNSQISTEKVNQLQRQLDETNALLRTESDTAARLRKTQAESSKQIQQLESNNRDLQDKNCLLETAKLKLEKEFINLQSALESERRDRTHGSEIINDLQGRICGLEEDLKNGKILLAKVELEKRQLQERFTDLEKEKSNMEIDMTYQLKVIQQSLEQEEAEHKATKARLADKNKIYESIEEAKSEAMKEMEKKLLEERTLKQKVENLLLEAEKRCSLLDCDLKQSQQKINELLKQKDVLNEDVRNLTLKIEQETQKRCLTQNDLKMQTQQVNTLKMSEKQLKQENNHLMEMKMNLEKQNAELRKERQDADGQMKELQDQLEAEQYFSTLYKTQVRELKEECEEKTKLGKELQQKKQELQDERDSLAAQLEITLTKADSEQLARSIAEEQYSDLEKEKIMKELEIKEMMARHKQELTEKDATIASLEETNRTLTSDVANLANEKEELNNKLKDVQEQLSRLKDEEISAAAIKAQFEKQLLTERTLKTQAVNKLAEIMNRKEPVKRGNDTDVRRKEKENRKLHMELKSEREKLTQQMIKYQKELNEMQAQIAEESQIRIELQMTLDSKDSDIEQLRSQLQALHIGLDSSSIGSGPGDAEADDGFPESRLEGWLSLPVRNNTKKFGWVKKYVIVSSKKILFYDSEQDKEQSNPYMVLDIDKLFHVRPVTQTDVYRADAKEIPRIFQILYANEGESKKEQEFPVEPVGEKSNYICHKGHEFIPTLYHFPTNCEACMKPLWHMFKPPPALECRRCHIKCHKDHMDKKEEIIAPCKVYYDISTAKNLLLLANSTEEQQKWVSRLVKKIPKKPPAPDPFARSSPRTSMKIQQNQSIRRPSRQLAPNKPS
Assay: biochemical;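 further: rho kinase enzyme reaction halted with EDTA, phospho- and non-phospho peptide separated for read-out, kinase activity inhibition derived across a dose-response series, DMSO under 2%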
pIC50: −log10 of the molar value. Structures can show the parent of a compound that is named as a salt.
Listing: pIC50 of selected compounds

COMPOUND: N#Cc1cccc(N[C@@H]2CCN(c3ccc(-c4cn[nH]c4)cc3)C2=O)c1 [Example 387]
pIC50: 7.00 to 8.00

COMPOUND: COc1nc(N2CCC(N(C)C3CCN(C)CC3)C2=O)ccc1-c1cn[nH]c1 (racemic) [Example 279]
pIC50: 5.66 to 7.00

COMPOUND: COc1nc(N2CCC(N3CCc4cccnc43)C2=O)ccc1-c1cn[nH]c1 (racemic) [Example 281]
pIC50: 7.00 to 8.00

COMPOUND: COc1cccc(OC2CCN(c3ccc(-c4cn[nH]c4)cc3)C2=O)c1 (stereo not drawn) [Example 108, TFA]
pIC50: 7.00 to 8.00

COMPOUND: O=C1[C@H](N2CCc3ccccc32)CCN1c1ccc(-c2cn[nH]c2)cc1 [Example 393]
pIC50: 7.00 to 8.00

COMPOUND: O=C1C(Oc2ccccc2)CCN1c1ccc(-c2cn[nH]c2)cc1 (stereo not drawn) [Example 64]
pIC50: 7.00 to 8.00

COMPOUND: COc1ccc(F)c(NC2CCN(c3ccc(-c4cn[nH]c4)c(F)c3)C2=O)c1 (single isomer, unassigned) [Example 334]
pIC50: 7.00 to 8.00

COMPOUND: COc1nc(N2CCC(N3CCC(=O)CC3)C2=O)ccc1-c1cn[nH]c1 (racemic) [Example 292]
pIC50: 7.00 to 8.00

# get_value(readout='pIC50', item= COc1nc(N2CCC(N3CC[C@H](NC(C)=O)C3)C2=O)ccc1-c1cn[nH]c1 (mixture of isomers) [Example 294] )
5.66 to 7.00

Another: O=C1C(Cc2ccccc2Cl)CCN1c1ccc(-c2cn[nH]c2)cc1 (stereo not drawn) [Example 95]
5.66 to 7.00

Another: COc1cccc(NC2CCN(c3ccc(-c4cn[nH]c4)cc3)C2=O)c1 (single isomer, unassigned) [Example 28]
> 8.00

Another: O=C1C(Nc2cccc(OC(F)F)c2)CCN1c1ccc(-c2cn[nH]c2)cc1 (single isomer, unassigned) [Example 232]
> 8.00

Another: COc1nc(N2CCC(N3CC[C@@H](N(C)C)C3)C2=O)ccc1-c1cn[nH]c1 (mixture of isomers) [Example 293]
5.66 to 7.00

Another: NC(=O)c1cccc(NC2CCN(c3ccc(-c4cn[nH]c4)cc3)C2=O)c1 (stereo not drawn) [Example 388]
> 8.00

Another: COc1nc(N2CCC(N3CCC(OC)CC3)C2=O)ccc1-c1cn[nH]c1 (racemic) [Example 291, hydrochloride]
5.66 to 7.00

Another: CCc1nc(N2CCC(Nc3ccc(F)c(OCC4CC4)c3)C2=O)ccc1-c1cn[nH]c1 (single isomer, unassigned) [Example 211]
7.00 to 8.00

Another: O=C1C(Nc2ccc(F)cc2F)CCN1c1ccc(-c2cn[nH]c2)cc1 (single isomer, unassigned) [Example 25]
7.00 to 8.00
